# ASSAYED_SYSTEM: human GPR119 (Homo sapiens)
# Sequence (Q8TDV5 whole entry): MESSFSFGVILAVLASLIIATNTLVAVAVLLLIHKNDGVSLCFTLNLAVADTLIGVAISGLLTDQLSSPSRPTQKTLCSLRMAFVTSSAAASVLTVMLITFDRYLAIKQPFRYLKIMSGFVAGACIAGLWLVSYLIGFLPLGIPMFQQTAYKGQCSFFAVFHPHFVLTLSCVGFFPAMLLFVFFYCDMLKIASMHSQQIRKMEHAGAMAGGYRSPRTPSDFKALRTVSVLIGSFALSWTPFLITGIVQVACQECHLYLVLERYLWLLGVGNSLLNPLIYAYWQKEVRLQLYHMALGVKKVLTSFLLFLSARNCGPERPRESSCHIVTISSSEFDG
# TEST_PROTOCOL: Measurement of GPR119 signaling using LANCE 384-well cAMP kit (LCMP assay)
# EXPERIMENTAL_PARAMETERS: HEK293 cells stably transfected with human GPR119
ASSAY_METRIC: EC50
Kindly write the number and append the unit.

The following compounds have reported results that may help.
CCc1cnc(N2CCC([C@H]3C[C@@H]3CCOc3ccc(-n4cnnn4)cc3F)CC2)nc1 [Example 60] : 17 nM
CCc1cnc(N2CCC([C@H]3C[C@@H]3COCc3ccc(S(=O)(=O)CC)cc3)CC2)nc1 [Example 9] : 22 nM
Fc1cc(-n2cnnn2)ccc1OCC[C@H]1C[C@@H]1C1CCN(c2ncc(Cl)cn2)CC1 [Example 58] : 11 nM
CC(C)c1noc(N2CCC([C@H]3C[C@@H]3CCOc3ccc(-n4cnnn4)cc3F)CC2)n1 [Example 68] : 3.5 nM

Ask | # query: EC50 | item CCc1cnc(N2CCC([C@@H]3C[C@H]3CCOc3ccc(CC(=O)N4CCC4)c(F)c3)CC2)nc1 [Example 36] | system: human GPR119 (Homo sapiens)
Reply | 5.5 nM

Ask | # query: EC50 | item CCc1cnc(N2CCC([C@@H]3C[C@H]3CCOc3ccc(CC(=O)N4CCC4)cc3F)CC2)nc1 [Example 62] | system: human GPR119 (Homo sapiens)
Reply | 11 nM

Ask | # query: EC50 | item CCc1cnc(N2CCC([C@H]3C[C@@H]3CCOc3ccc(N4CCNC4=O)c(F)c3)CC2)nc1 [Example 43] | system: human GPR119 (Homo sapiens)
Reply | 9.6 nM

Ask | # query: EC50 | item CCc1cnc(N2CCC([C@@H]3C[C@H]3CCOc3ccc(-n4cnnn4)cc3F)CC2)nc1 [Example 40] | system: human GPR119 (Homo sapiens)
Reply | 5 nM

Ask | # query: EC50 | item CC(C)c1noc(N2CCC([C@@H]3C[C@H]3CCOc3ccc(S(C)(=O)=O)cc3F)CC2)n1 [Example 66] | system: human GPR119 (Homo sapiens)
Reply | 3.5 nM
